Would you mind telling me the reported viability, T/C of each entry?
System: 186277-243-T-J2-PDC multi-cell spheroid viability
Test: Anticancer human tumor 186277-243-T-J2-PDC patient-derived colon adenocarcinoma cell line growth inhibition [PI3K]
Details: second compound 0.0316 µM; first compound 0.316 µM; hits give low values

>  <molecule>
C[C@@H](NC(=O)c1ncnc(N)c1Cl)c1ncc(C(=O)Nc2cc(C(F)(F)F)c(Cl)cn2)s1 + Cc1nc(NC(=O)N2CCCC2C(N)=O)sc1-c1ccnc(C(C)(C)C(F)(F)F)c1

>  <target.under.test>
186277-243-T-J2-PDC multi-cell spheroid viability

>  <viability, T/C>
101%

$$$$

Can you give me viability, T/C for all of these, one by one?
1. CC1(C)CCC(CN2CCN(c3ccc(C(=O)NS(=O)(=O)c4ccc(NCC5CCOCC5)c([N+](=O)[O-])c4)c(Oc4cnc5[nH]ccc5c4)c3)CC2)=C(c2ccc(Cl)cc2)C1 + Cc1nc(NC(=O)N2CCCC2C(N)=O)sc1-c1ccnc(C(C)(C)C(F)(F)F)c1
2. Cn1nccc1Nc1nccc(-c2ccn(C(CO)c3ccc(Cl)c(F)c3)c(=O)c2)n1 (stereo not drawn) + CC(Nc1ncnc2nc[nH]c12)c1cc2cccc(Cl)c2c(=O)n1-c1ccccc1

1: 106%; 2: 112%

###

Test system: 186277-243-T-J2-PDC multi-cell spheroid viability
Test: Anticancer human tumor 186277-243-T-J2-PDC cell line growth inhibition [PI3K];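 note: spheroids exposed to compounds for seven days before viability reading; 100% = DMSO vehicle control viability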
Details: second compound 0.316 µM; first compound 10 µM; hits give low values
Excerpt: Combinatorial screen of targeted agents with the PI3K inhibitors inavolisib, alpelisib, duvelisib, and copanlisib in multi-cell type tumor spheroids A high-throughput screen of multi-cell type tumor spheroids was designed to identify active combinations of targeted small molecules and PI3K pathway inhibitors. […] Compounds. […] If the clinical Cmax for an agent had not been determined, the highest concentration tested was 10 microM. […]
Field 'label' (enum: yes / no). Set to yes when viability, T/C is strictly under 5%; else no.

A selection of reference data follows.
>  <compound>
CC1(C)CCC(Nc2ncc(C(F)(F)F)c(-c3c[nH]c4c(P(C)(C)=O)c(C#N)ccc34)n2)CN1 (stereo unspecified) + CC(Nc1ncnc2nc[nH]c12)c1cc2cccc(Cl)c2c(=O)n1-c1ccccc1

>  <target.under.test>
186277-243-T-J2-PDC multi-cell spheroid viability

>  <class.assignment>
yes

$$$$
>  <compound>
CC1(C)CCC(Nc2ncc(C(F)(F)F)c(-c3c[nH]c4c(P(C)(C)=O)c(C#N)ccc34)n2)CN1 (stereo unspecified) + Cc1nc(NC(=O)N2CCCC2C(N)=O)sc1-c1ccnc(C(C)(C)C(F)(F)F)c1

>  <target.under.test>
186277-243-T-J2-PDC multi-cell spheroid viability

>  <class.assignment>
yes

$$$$
>  <compound>
CC(Cn1ccc(-c2ccc(C#N)c(Cl)c2)n1)NC(=O)c1cc(C(C)O)[nH]n1 (stereo unspecified) + Cc1nc(NC(=O)N2CCCC2C(N)=O)sc1-c1ccnc(C(C)(C)C(F)(F)F)c1

>  <target.under.test>
186277-243-T-J2-PDC multi-cell spheroid viability

>  <class.assignment>
no

$$$$
>  <compound>
CC(C)NCC(C(=O)N1CCN(c2ncnc3c2C(C)CC3O)CC1)c1ccc(Cl)cc1 (stereo unspecified) + CC(Nc1ccc2c(c1)OCCn1cc(N3C(=O)OCC3C(F)F)nc1-2)C(N)=O

>  <target.under.test>
186277-243-T-J2-PDC multi-cell spheroid viability

>  <class.assignment>
no

$$$$
>  <compound>
CNC(=O)c1ccc(N2C(=S)N(c3ccc(C#N)c(C(F)(F)F)c3)C(=O)C2(C)C)cc1F + CC(Nc1ncnc2nc[nH]c12)c1cc2cccc(Cl)c2c(=O)n1-c1ccccc1

>  <target.under.test>
186277-243-T-J2-PDC multi-cell spheroid viability

>  <class.assignment>
no

$$$$

Problem: For the compound CC1(C)CCC(CN2CCN(c3ccc(C(=O)NS(=O)(=O)c4ccc(NCC5CCOCC5)c([N+](=O)[O-])c4)c(Oc4cnc5[nH]ccc5c4)c3)CC2)=C(c2ccc(Cl)cc2)C1 + Cc1nc(NC(=O)N2CCCC2C(N)=O)sc1-c1ccnc(C(C)(C)C(F)(F)F)c1 , is viability, T/C under 5%? yes

Problem: For the compound CC(C)NCC(C(=O)N1CCN(c2ncnc3c2C(C)CC3O)CC1)c1ccc(Cl)cc1 (stereo unspecified) + Cc1nc(NC(=O)N2CCCC2C(N)=O)sc1-c1ccnc(C(C)(C)C(F)(F)F)c1 , is viability, T/C under 5%? no

Problem: For the compound Cn1ncc(Cl)c1-c1cc(C(=O)NC(CN)Cc2cccc(F)c2)sc1Cl (stereo unspecified) + CC(Nc1ccc2c(c1)OCCn1cc(N3C(=O)OCC3C(F)F)nc1-2)C(N)=O , is viability, T/C under 5%? yes

Problem: For the compound C=CC(=O)N1CCN(c2nc(=O)n(-c3c(C)ccnc3C(C)C)c3nc(-c4c(O)cccc4F)c(F)cc23)C(C)C1 (stereo unspecified) + Cc1nc(NC(=O)N2CCCC2C(N)=O)sc1-c1ccnc(C(C)(C)C(F)(F)F)c1 , is viability, T/C under 5%? no

Problem: For the compound CNC(=O)c1ccc(N2C(=S)N(c3ccc(C#N)c(C(F)(F)F)c3)C(=O)C2(C)C)cc1F + COc1c(OCCCN2CCOCC2)ccc2c3n(c(=NC(=O)c4cnc(N)nc4)nc12)CCN3 , is viability, T/C under 5%? no

Problem: For the compound CC1(C)CCC(Nc2ncc(C(F)(F)F)c(-c3c[nH]c4c(P(C)(C)=O)c(C#N)ccc34)n2)CN1 (stereo unspecified) + COc1c(OCCCN2CCOCC2)ccc2c3n(c(=NC(=O)c4cnc(N)nc4)nc12)CCN3 , is viability, T/C under 5%? yes
